Reference for the values: paper PMC5540273

The reader will find reported %Inh values listed item by item below.
tested on: SRPK3; conditions: concentration: 1 μM, replicates: in singlicate; n = 1;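 also: KINOMEscan kinase panel screen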
readoutKind: %Inh (%)

[
  {
    "molecule": "COc1ccc(Nc2nccc(N3CCC(NC(=O)Nc4cccc(OC)c4)C3)n2)cc1 (centres unmarked) [GSK1379742]",
    "reportedValue": 0
  },
  {
    "molecule": "O=C(Nc1n[nH]c2nc(-c3ccc(O)cc3)ccc12)C1CC1 [SB-710363]",
    "reportedValue": 25
  },
  {
    "molecule": "Cc1ccc(C(=O)N2CC[C@@H](O)C2)cc1-n1c(C)cc(OCc2ccc(F)cc2F)c(Br)c1=O",
    "reportedValue": 0
  },
  {
    "molecule": "Cc1ccc(F)c(C(=O)Nc2cccc(-c3nn4ccccc4c3-c3ccnc(Nc4cccc(F)c4)n3)c2)c1F [GSK361061]",
    "reportedValue": 25
  },
  {
    "molecule": "COc1cc(Nc2ncc3c(C)nc(-c4cc5ccccc5[nH]4)n3n2)cc(OC)c1OC [GW869516]",
    "reportedValue": 19
  },
  {
    "molecule": "O=C(Nc1ccccc1F)NC1CCN(c2ccnc(Nc3ccc(F)cc3)n2)CC1 [GSK1379800]",
    "reportedValue": 0
  },
  {
    "molecule": "COc1cc(Nc2nccc(N3CCC(NC(=O)c4cc5ccccc5s4)C3)n2)cc(OC)c1OC (centres unmarked) [GSK1379760]",
    "reportedValue": 22
  },
  {
    "molecule": "CN(C)S(=O)(=O)c1cc(-c2ccc3nccc(-c4cccc(S(N)(=O)=O)c4)c3c2)cnc1N [GSK1669921]",
    "reportedValue": 19
  }
]

====

In this section, each of the compounds is paired with its reported %Inh.
system: NIM1; construct: gene MGC42105; conditions: concentration: 1 μM, replicates: in singlicate; n = 1
readoutKind: %Inh (%)

[
  {
    "compound": "CC(C)c1nc(-c2cccc(NS(=O)(=O)c3c(F)cccc3F)c2F)c(-c2ccnc(Nc3ccc(N4CCOCC4)nc3)n2)s1",
    "target": "NIM1",
    "resultUnits": "%",
    "reportedValue": 1
  },
  {
    "compound": "COc1cc(Nc2nccc(N3CCC(NC(=O)Nc4cccc(C(C)=O)c4)C3)n2)cc(OC)c1OC (centres unmarked)",
    "target": "NIM1",
    "resultUnits": "%",
    "reportedValue": 11
  },
  {
    "compound": "Cc1ccc(C)c(NC(=O)NC2CCN(c3ccnc(Nc4ccc(F)cc4)n3)C2)c1 (centres unmarked)",
    "target": "NIM1",
    "resultUnits": "%",
    "reportedValue": 43
  },
  {
    "compound": "Cl.Cl.NCC(C(=O)Nc1cc(Br)c(-c2ccnc3[nH]ccc23)s1)c1ccccc1 (centres unmarked)",
    "target": "NIM1",
    "resultUnits": "%",
    "reportedValue": 11
  },
  {
    "compound": "Cc1ccc(C(=O)Nc2ccc(Nc3ccnc4cc(-c5nccs5)ccc34)cc2O)cc1.Cl",
    "target": "NIM1",
    "resultUnits": "%",
    "reportedValue": 19
  },
  {
    "compound": "C[C@@H](Oc1cc(-n2cnc3cc(-c4ccnc(NCCS(C)(=O)=O)c4)ccc32)sc1C(N)=O)c1ccccc1Cl",
    "target": "NIM1",
    "resultUnits": "%",
    "reportedValue": 69
  },
  {
    "compound": "COc1cc(Nc2ncc3c(C)nc(-c4cc5ccccc5[nH]4)n3n2)cc(OC)c1OC",
    "target": "NIM1",
    "resultUnits": "%",
    "reportedValue": 0
  },
  {
    "compound": "Clc1ccc(-c2nn3ncccc3c2-c2ccnc(Nc3ccc4c(c3)OCCO4)n2)cc1",
    "target": "NIM1",
    "resultUnits": "%",
    "reportedValue": 0
  }
]
